# Method: in vitro
# Experimental setup: human, hela cells, % viability
Mark true only when viability at 28.5 h, 10 µM stays strictly below 90%. Values equal to the cut-off are false.

These recorded examples may help you get a feel for the data.
Compound	Classification
COc1ccc(Cl)cc1S(=O)(=O)N1CCC(C(=O)NCCO)CC1	true
Cn1ncc2c1CCCN(C(=O)CCCOc1ccccc1F)C2	true
COc1ccc(NC(=O)CSCc2cc(O)[nH]n2)cc1	false
CN(C)C(=O)c1ccc(-c2cnc3[nH]c(=O)n(CCCN4CCOCC4)c3n2)cc1	false
COCCn1c(CN2CCCC(C)C2)nc2c1c(=O)n(C)c(=O)n2C (stereo not shown)	false

Bench note: check whether CCOc1ccc(C(=O)CCNCC(=O)O)cc1 shows viability at 28.5 h, 10 µM below 90%
false

Bench note: check whether CS(=O)(=O)N1CCN(CC(O)Cn2c3ccc(Cl)cc3c3cc(Cl)ccc32)CC1 (stereo not shown) shows viability at 28.5 h, 10 µM below 90%
false

Bench note: check whether CCc1nc2ccc(C(=O)N(C)CCN(C)C)cn2c1N(CC)CCOC shows viability at 28.5 h, 10 µM below 90%
false

###

# Method: in vitro
# Parameters: Viability of infected HeLa host cells, resazurin conversion, bulk resorufin fluorescence relative to DMSO
# Experimental setup: human, hela cells; bulk resorufin, mean of 3
Examples of compounds with documented viability at 28.5 h, 0.037 µM follow.
A number alone suffices; assume %.

Compound	Measurement units	viability at 28.5 h, 0.037 µM
CC(=O)Nc1ccc(-c2cccc(COC3CCN(C(=O)c4ccc(OC(C)C)cc4)CC3)c2)cc1 [c36e]	%	91.7
c1c(C2CC2)[nH]c2nc(N3CCCC3)nc(N3CCCC3)c12	%	89.7
O=C1C(NCCO)=C(Nc2cccc(Cl)c2)C(=O)c2ccccc21 [c45e]	%	91.8

Using the record for COc1ccc(C2CC(=O)C=C(Nc3cc(Cl)ccc3O)C2)cc1 (stereo not shown) [c24e] , report its viability at 28.5 h, 0.037 µM.
89.8

Using the record for CCC1C(c2ccc(C)cc2)=CCC(C(=O)NCCCN(C)C)C1C (stereo not shown) [c30e] , report its viability at 28.5 h, 0.037 µM.
90.5

Using the record for Oc1ccccc1Nc1nc(NC2CCCC2)c2ccccc2n1 [c49e] , report its viability at 28.5 h, 0.037 µM.
86

Using the record for OCCNc1nc(Nc2ccc(Br)cc2)nc2ccccc12 [c17e] , report its viability at 28.5 h, 0.037 µM.
88.2

Using the record for Cc1cccc(-c2ccc(CC3(C(N)=O)CCN(C(=O)CCc4ccccc4)CC3)cc2)c1 [c38e] , report its viability at 28.5 h, 0.037 µM.
98.4

Using the record for O=C(c1ccc(-c2ccc(F)cc2)o1)N1C[C@H]2CC[C@](O)(c3ccc(F)cc3)[C@H]2C1 , report its viability at 28.5 h, 0.037 µM.
91.7

Using the record for O=C(Nc1ccccc1N1CCCNCC1)c1ccc2ccccc2c1 [c29e] , report its viability at 28.5 h, 0.037 µM.
109

Using the record for O=C(Nc1ccc(OC(F)(F)F)cc1)Nc1cc(-c2cccs2)n[nH]1 [c26e] , report its viability at 28.5 h, 0.037 µM.
96.1

Using the record for Fc1cccc(F)c1OCCOc1nc(N2CCNCC2)ccc1C(F)(F)F [c21e] , report its viability at 28.5 h, 0.037 µM.
84.7
